In this section we review reported binding affinity ratio values for a set of binders.
- systemTested: HLA-A*6802 (human)
- protocolText: competition with 125I-labelled standard peptide 1072.34 for purified HLA, gel filtration
- runParameters: scale: ratio
observationType: binding affinity ratio

INSERT INTO assay_data (binder, observed) VALUES
  ('VVHYRKWI (modifications not checked) [VVHYRKWI (PSA, position 242, 8 amino acids)]', -0.0001),
  ('GLPTQEPA (modifications not checked) [Kallikrein (hK2) peptide GLPTQEPA (position 140)]', -0.0001),
  ('GLWTGGKDT (modifications not checked) [Kallikrein (hK2) peptide … (position 200)]', -0.0002),
  ('VVHYRKWI (modifications not checked) [VVHYRKWI (Kallikrein, position 246, 8 amino acids)]', -0.0001),
  ('VVKVLGLPT (modifications not checked) [… (Kallikrein, position 135, 9 amino acids)]', -0.0002);
